Molecular target: T1, antibody raised against ETAG
T1 construct: Coated at 500 ng/well; also called E-tag antibody
Test: phage ELISA
Reported values of ETAG (OD) for individual entries
Field: numeric (OD). Do not append units.

*Q* Give reported ETAG (OD) value for MGVVLECEGGWSIPGQTCYFAAAGAPVPYPDPLEPRP [DGI-2-20R-3-C7]
*A* 18

*Q* Give reported ETAG (OD) value for MFQDVACDLWHSVRCLRRDVAAAGAPVPYPDPLEPRP [DGI-2-20R-3-B3]
*A* 16.1

*Q* Give reported ETAG (OD) value for VVRQGCMAFSGLCSGVTESEAAAGAPVPYPDPLEPRP [DGI-2-20R-3-C8]
*A* 21.1

*Q* Give reported ETAG (OD) value for CCAWNGVGVGGLGWRVVVGPAAAGAPVPYPDPLEPRP [DGI-2-20F-PP-H4]
*A* 32.9

*Q* Give reported ETAG (OD) value for GHGAGDWAAELFVCPVAFLTGFAWRAAAGAPVPYPDPLEPRP [DGI-2-20R-4-H2]
*A* 12.9

Data origin, for the record: patent US7056679
